Biological target: human neuropeptide Y5 receptor (Homo sapiens, UniProt Q15761)
Construct: expressed in transfected cells; host or cells: HEK-293 (human embryonic kidney cells), stably transfected, G-418 selected; membranes
Sequence (Q15761 whole entry): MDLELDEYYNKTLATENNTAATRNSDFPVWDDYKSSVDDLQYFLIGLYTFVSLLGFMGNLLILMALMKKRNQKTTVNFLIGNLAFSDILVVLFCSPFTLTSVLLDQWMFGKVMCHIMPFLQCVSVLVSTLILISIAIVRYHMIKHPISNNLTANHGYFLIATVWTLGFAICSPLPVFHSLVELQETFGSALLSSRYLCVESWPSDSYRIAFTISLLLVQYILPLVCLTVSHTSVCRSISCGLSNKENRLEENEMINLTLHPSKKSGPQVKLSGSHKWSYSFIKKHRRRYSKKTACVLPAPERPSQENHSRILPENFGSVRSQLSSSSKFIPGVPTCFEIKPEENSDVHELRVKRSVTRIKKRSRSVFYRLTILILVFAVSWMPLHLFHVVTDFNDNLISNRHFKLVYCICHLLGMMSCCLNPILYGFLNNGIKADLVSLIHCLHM
Assay: NPY5 HTS centrifugation assay: competition with 125I-PYY for binding to membranes of NPY5-transfected HEK-293 cells
Conditions: 3 μM compound; % inhibition of 125I-PYY binding
Protocol: The compounds described in this invention were evaluated for binding to the human neuropeptide Y5 receptor. […] A competition binding assay, known to those skilled in the art, was used in which the compounds of formula (I) compete with ^125I-PYY for binding to cell membranes. […] Bound ^125I-PYY was determined by centrifugation of membranes, aspirating supernatant, washing away residual ^125I-PYY and subsequently counting the bound sample in a g-counter. […]
We use 20% as the dividing line for % Inh NPY5r 3 μM: on or above the line is 1 (yes), below is 0 (no).

1) Cc1cc(C(=O)NCc2cc(Cl)cc(Cl)c2)nn1-c1cccc(C(F)(F)F)c1 [Compound 119] | 1 (yes)

Okay, next one:
Q: Hello, I need to know if Cc1cc(C(=O)NCc2cc(C(F)(F)F)cc(C(F)(F)F)c2)nn1-c1cccc(C(F)(F)F)c1 [Compound 120] has measured % Inh NPY5r 3 μM not below 20%. Thanks!
A: 1 (yes)
